Listed binders paired with reported Binding affinity (RU)
# target of assay: acetylcholine receptor
# experiment summary: SPR, peptide at 10 uM, acetylcholine receptor immobilized on chip
quantity kind: Binding affinity (RU)

binder="RYMKK [5mer-933]" result_value="27 RU"
binder="KMTHR [5mer-915]" result_value="28 RU"
binder="KKMGR [5mer-912]" result_value="16 RU"
binder="RPTNK [5mer-629]" result_value="32 RU"
binder="KPDPK [5mer-904]" result_value="23 RU"
binder="RINVK [5mer-909]" result_value="33 RU"
binder="RAAKR [5mer-633]" result_value="20 RU"
binder="KHDGR [5mer-643]" result_value="28 RU"
binder="RITFR [5mer-630]" result_value="30 RU"
binder="RITWK [5mer-641]" result_value="22 RU"
binder="REDPK [5mer-902]" result_value="23 RU"
binder="RYEFK [5mer-944]" result_value="25 RU"
binder="RHHKR [5mer-903]" result_value="21 RU"
binder="KKSMK [5mer-621]" result_value="13 RU"
binder="KDWIR [5mer-947]" result_value="27 RU"
binder="RHKDK [5mer-645]" result_value="20 RU"
binder="KMHAR [5mer-939]" result_value="24 RU"
binder="KCSFK [5mer-619]" result_value="19 RU"
